Target: UniProt:Q14973
Sequence (Q14973 whole entry): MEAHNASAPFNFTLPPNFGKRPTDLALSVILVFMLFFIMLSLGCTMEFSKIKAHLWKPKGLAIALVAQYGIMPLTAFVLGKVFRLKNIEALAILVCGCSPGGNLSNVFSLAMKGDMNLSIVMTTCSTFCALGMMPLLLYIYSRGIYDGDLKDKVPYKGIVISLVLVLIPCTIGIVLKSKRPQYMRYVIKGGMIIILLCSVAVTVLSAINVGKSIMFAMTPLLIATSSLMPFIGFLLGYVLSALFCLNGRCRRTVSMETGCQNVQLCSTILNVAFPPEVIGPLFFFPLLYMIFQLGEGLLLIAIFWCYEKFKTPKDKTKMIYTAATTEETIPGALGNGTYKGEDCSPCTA
Test: NTCP inhibition, 3H taurocholate uptake in transfected CHO cells
Conditions: mean ± SD of 3 independent studies in duplicate, tested 0.14–100 µM
Result Type: IC50

>>> result("COC(c1ccccc1)(c1ccccc1)[C@H](Oc1nc(C)cc(C)n1)C(=O)O")
"> 100 µM"

---

The reader will find reported IC50 values listed item by item below.
Target: OATP1B3 (Homo sapiens, UniProt Q9NPD5)
Construct: host or cells: CHO
Sequence (Q9NPD5 whole entry): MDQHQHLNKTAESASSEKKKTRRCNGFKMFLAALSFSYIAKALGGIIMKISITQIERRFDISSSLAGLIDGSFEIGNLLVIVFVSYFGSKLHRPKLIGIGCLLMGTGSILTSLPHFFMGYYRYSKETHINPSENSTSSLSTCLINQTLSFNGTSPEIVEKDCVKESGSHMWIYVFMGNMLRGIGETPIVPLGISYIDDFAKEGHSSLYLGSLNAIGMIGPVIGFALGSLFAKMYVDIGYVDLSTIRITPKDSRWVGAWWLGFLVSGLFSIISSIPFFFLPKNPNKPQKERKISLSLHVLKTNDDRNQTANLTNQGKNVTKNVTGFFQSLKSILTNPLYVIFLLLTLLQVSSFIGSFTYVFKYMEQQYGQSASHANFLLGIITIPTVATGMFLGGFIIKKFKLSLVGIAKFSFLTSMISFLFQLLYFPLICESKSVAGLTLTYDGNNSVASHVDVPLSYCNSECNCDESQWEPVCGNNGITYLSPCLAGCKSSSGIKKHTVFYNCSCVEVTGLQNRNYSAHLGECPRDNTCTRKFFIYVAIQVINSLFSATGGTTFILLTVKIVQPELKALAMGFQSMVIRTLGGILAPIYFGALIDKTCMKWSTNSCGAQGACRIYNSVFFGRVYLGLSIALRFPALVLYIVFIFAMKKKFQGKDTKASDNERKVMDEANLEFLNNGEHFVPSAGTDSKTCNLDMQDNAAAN
Assay: OATP1B3 inhibition, Fluo 3 uptake in transfected CHO cells
Assay type: cell-based
Details: CHO cells, Fluo 3; mean ± SD of 3 independent studies in duplicate; tested 0.14–100 µM; read-out: OATP1B3 IC50
Result Type: IC50 (µM)

>>> readout_number("COc1ccccc1Oc1c(NS(=O)(=O)c2ccc(C(C)(C)C)cc2)nc(-c2ncccn2)nc1OCCO [bosentan]")
5.2
>>> readout_number("CCCNS(=O)(=O)Nc1ncnc(OCCOc2ncc(Br)cn2)c1-c1ccc(Br)cc1 [macitentan]")
2.1
